tested on: 958667-338-R-J2-PDC tumor spheroids viability; experiment: Anticancer human tumor 958667-338-R-J2-PDC patient-derived colon adenocarcinoma cell line growth inhibition [PI3K]; conditions: curve of first compound; second compound 0.0316 µM; spheroids with HUVEC and MSC;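 further: spheroids exposed to compounds for seven days before readout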
EXPERIMENTAL_READOUT: IC50

Known IC50 results, listed for orientation:
# compound C[C@@H](NC(=O)c1ncnc(N)c1Cl)c1ncc(C(=O)Nc2cc(C(F)(F)F)c(Cl)cn2)s1 + Cc1nc(NC(=O)N2CCCC2C(N)=O)sc1-c1ccnc(C(C)(C)C(F)(F)F)c1 ; its IC50 = > 10 µM

# compound Cn1ncnc1[C@H]1c2n[nH]c(=O)c3cc(F)cc(c23)N[C@@H]1c1ccc(F)cc1 + CC(Nc1ncnc2nc[nH]c12)c1cc2cccc(Cl)c2c(=O)n1-c1ccccc1 ; its IC50 = > 0.1 µM

# compound CC1(C)CCC(CN2CCN(c3ccc(C(=O)NS(=O)(=O)c4ccc(NCC5CCOCC5)c([N+](=O)[O-])c4)c(Oc4cnc5[nH]ccc5c4)c3)CC2)=C(c2ccc(Cl)cc2)C1 + CC(Nc1ncnc2nc[nH]c12)c1cc2cccc(Cl)c2c(=O)n1-c1ccccc1 ; its IC50 = > 10 µM

# compound CC(=O)c1c(C)c2cnc(Nc3ccc(N4CCNCC4)cn3)nc2n(C2CCCC2)c1=O + Cc1nc(NC(=O)N2CCCC2C(N)=O)sc1-c1ccnc(C(C)(C)C(F)(F)F)c1 ; its IC50 = > 0.1 µM

# compound C[C@@H](NC(=O)c1ncnc(N)c1Cl)c1ncc(C(=O)Nc2cc(C(F)(F)F)c(Cl)cn2)s1 + CC(Nc1ncnc2nc[nH]c12)c1cc2cccc(Cl)c2c(=O)n1-c1ccccc1 ; its IC50 = > 10 µM

# compound CNC(=O)c1ccc(N2C(=S)N(c3ccc(C#N)c(C(F)(F)F)c3)C(=O)C2(C)C)cc1F + CC(Nc1ncnc2nc[nH]c12)c1cc2cccc(Cl)c2c(=O)n1-c1ccccc1 ; its IC50 = > 10 µM

# compound C#Cc1c(F)ccc2cc(O)cc(-c3ncc4c(N5CC6CCC(C5)N6)nc(OCC56CCCN5CC(F)C6)nc4c3F)c12 (stereo unspecified) + CC(Nc1ccc2c(c1)OCCn1cc(N3C(=O)OCC3C(F)F)nc1-2)C(N)=O ; its IC50 = 8.56 µM

# compound CCCS(=O)(=O)Nc1ccc(F)c(C(=O)c2c[nH]c3ncc(-c4ccc(Cl)cc4)cc23)c1F + Cc1nc(NC(=O)N2CCCC2C(N)=O)sc1-c1ccnc(C(C)(C)C(F)(F)F)c1 ; its IC50 = 5.75 µM

# compound CC(C)n1nc(-c2ccc3oc(N)nc3c2)c2c(N)ncnc21 + CC(Nc1ccc2c(c1)OCCn1cc(N3C(=O)OCC3C(F)F)nc1-2)C(N)=O ; its IC50 = 0.0436 µM

# compound CC(C)n1nc(-c2ccc3oc(N)nc3c2)c2c(N)ncnc21 + COc1c(OCCCN2CCOCC2)ccc2c3n(c(=NC(=O)c4cnc(N)nc4)nc12)CCN3 ; its IC50 = 0.0228 µM

Let us move to another entry and its IC50.
# compound CNC(=O)c1ccc(N2C(=S)N(c3ccc(C#N)c(C(F)(F)F)c3)C(=O)C2(C)C)cc1F + COc1c(OCCCN2CCOCC2)ccc2c3n(c(=NC(=O)c4cnc(N)nc4)nc12)CCN3 ; its IC50 = > 10 µM
